IC50: recorded values
- measured.target: human PRMT8 (Homo sapiens, UniProt Q9NR22)
- Sequence (Q9NR22 whole entry): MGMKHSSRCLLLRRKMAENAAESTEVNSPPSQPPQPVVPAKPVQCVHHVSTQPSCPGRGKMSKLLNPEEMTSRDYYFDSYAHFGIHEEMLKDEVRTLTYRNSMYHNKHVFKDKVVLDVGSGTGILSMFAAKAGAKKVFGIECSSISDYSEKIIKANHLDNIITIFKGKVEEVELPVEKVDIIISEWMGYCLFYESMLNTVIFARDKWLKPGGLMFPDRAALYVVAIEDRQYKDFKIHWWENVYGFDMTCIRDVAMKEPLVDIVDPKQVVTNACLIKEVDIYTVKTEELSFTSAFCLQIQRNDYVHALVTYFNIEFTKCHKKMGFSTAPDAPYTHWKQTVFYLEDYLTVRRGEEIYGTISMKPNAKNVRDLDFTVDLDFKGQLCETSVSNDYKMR
- experiment.notes: PRMT8 Biochemical Assay (3H-SAM Flashplate, peptide substrate)
- measurement.setup: single experiment or average of multiple experiments
Only the number, expressed in µM, is required.

// field: IC50; key: Cc1ccccc1-c1n[nH]cc1CN(C)CCN ; value = 2.1

// field: IC50; key: CN(CCN)Cc1c[nH]nc1-c1cc(F)ccc1Cl ; value = 3.11

// field: IC50; key: CCNC(=O)c1ccc(-c2n[nH]cc2CN(C)CCN)cc1 ; value = 0.496

// field: IC50; key: CN(CCN)Cc1c[nH]nc1-c1ccc(Cl)cc1Cl ; value = 0.74

Reference source: patent US9776972B2
